Origin of the recorded values: PubChem BioAssay

test_description: probe aLefty1 binding on compound microarray – biochemical, small-molecule microarray, 635/667 nm fluorescence, primary screen (AID 1153);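 further: score merges spot fluorescence with signal-to-noise ratio from the scanned slide images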
condition_context: higher = more signal
Below, each entry is listed alongside its reported composite z-score.
Simply state the number, no unit and no words.

CCCNC(=O)[C@@H]1c2ccccc2C(=O)N(Cc2ccccc2OC)[C@H]1c1ccc(CO)cc1
-0.0011
CC#CC(=O)Oc1ccc(Br)cc1C=CC(=O)OCC
0.0386
COC(=O)[C@@]1(Cc2ccc(OC)cc2)[C@H]2c3cc(C(=O)N4CCCC4)n(Cc4nc5ccccc5[nH]4)c3C[C@H]2CN1C(=O)c1ccccc1
0.388

Record COC(=O)c1c2oc(c1C(=O)OC)C(=O)NC1(CCCCC1)c1cn(nn1)C[C@H](Cc1ccccc1)NC(=O)N[C@H](CO)CC2 , field composite z-score: -0.258

Memo: COc1ccccc1CN1C(=O)c2ccccc2[C@@]2(Cc3ccccc3N(CCCN(C)C)C2=O)[C@@H]1c1ccc(CO)cc1 , reported composite z-score: -0.152

The compound identified as CCOC(=O)[C@H]1C/C=C/C[C@H](C(=O)OCC)C(=O)O[C@H]2[C@@H](OC)O[C@H](CO)[C@@H](OC(=O)c3ccc(Br)cc3)[C@@H]2OC1=O registered its composite z-score at -0.0349

Sample O=C1OCCC=C[C@H]2OC34C=CCN(CCN5CCOCC5)C(=O)[C@H]3N(CCCCCO)C(=O)[C@@H]4C12 (stereo not given in full) ; composite z-score observed: -0.103

The compound listed as C=CCC(OC(C)=O)[C@@H]1[C@@H](N(Cc2cc3ccccc3o2)C(=O)Cc2ccc(OC)cc2)c2cc(OCCCO)ccc2N1C(=O)c1ccc2ccccc2c1 (stereo not given in full) shows composite z-score equal to -0.0252

----------
subject_of_test: Dihydroorotate dehydrogenase (quinone), mitochondrial (Plasmodium falciparum (isolate 3D7))
test_description: inhibition of P. falciparum DHODH – biochemical, C-terminal His tag, absorbance 600 nm, primary screen (AID 1175);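 further: recombinant parasite enzyme with a five histidine tag at its C terminus; test concentration not given here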
condition_context: PfDHODH enzyme, DCIP absorbance 600 nm, called active from +8 up or from −8 down
Active and inactive are the calls of the source.
Returns: one label drawn from TRUE for active, FALSE for inactive

Here's what some known entries look like.
NCCCCCCNC(=O)[C@H]1C[C@H]2C(=O)N[C@@H](Cc3ccccc3)C(=O)N2[C@H]1c1cccc(OCCO)c1
FALSE
COC(=O)[C@H](Cc1ccccc1)N[C@H](/C=C/C1CC1)[C@@H](O)Cc1ccccc1
FALSE

Entry C=CC[C@]1(C(N)=O)N=C(c2ccc(OCCCO)cc2)O[C@H]1c1ccccc1 : call = ?
FALSE

Call for entry COC(=O)[C@@]1(Cc2ccccc2)[C@H]2c3cc(C(=O)N4CCCC4)n(Cc4ccc(O)c(OC)c4)c3C[C@H]2CN1C(=O)c1ccccc1 :
FALSE

So what was the verdict on COC(=O)[C@]1(CCC(=O)OC(C)(C)C)N=C(c2ccc(OCCCO)cc2)O[C@@H]1c1ccccc1 in this test?
FALSE

Entry NC(=O)NCC#Cc1ccc2c(c1)[C@]1(C(=O)N2)[C@H](C(=O)O)[C@H]2C(=O)O[C@H](c3ccccc3)[C@H](c3ccccc3)N2[C@@H]1c1ccc(O)cc1 : call = ?
FALSE

Given [N-]=[N+]=NCc1ccccc1[C@H]1OC(c2ccc(OCCCO)cc2)=N[C@@]1(Cc1ccccc1)C(=O)N1CCCCC1 , state the outcome it received in this test.
FALSE

Short answer needed: outcome of this test for O=C1C2C=CC(C(O)C=Cc3ccc([N+](=O)[O-])cc3)N(Nc3ccccc3F)C2C(=O)N1c1ccccc1 (stereo not given) ?
FALSE

# lookup: test call for NCCCCCNC(=O)[C@H]1C[C@H]2C(=O)N[C@@H](Cc3ccccc3)C(=O)N2[C@H]1c1cccc(OCCO)c1
FALSE
